Origin of values: ChEMBL document CHEMBL1145498

target: Mitogen-activated protein kinase 3 (Homo sapiens)
Sequence (P27361 whole entry): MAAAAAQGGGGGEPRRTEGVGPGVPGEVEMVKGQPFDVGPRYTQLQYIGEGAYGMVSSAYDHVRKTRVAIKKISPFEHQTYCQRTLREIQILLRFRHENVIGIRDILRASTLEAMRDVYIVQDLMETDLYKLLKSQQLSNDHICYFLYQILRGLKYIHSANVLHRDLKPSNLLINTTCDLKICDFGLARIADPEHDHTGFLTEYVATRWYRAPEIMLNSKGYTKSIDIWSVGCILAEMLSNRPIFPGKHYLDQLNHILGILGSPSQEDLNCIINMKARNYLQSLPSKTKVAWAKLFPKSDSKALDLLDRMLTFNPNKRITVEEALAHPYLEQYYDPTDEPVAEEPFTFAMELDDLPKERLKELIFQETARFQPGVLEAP
Rule: measured ΔTm below 0.2 °C gets 1.0; anything equal to or greater than 0.2 °C gets 0.0.

NC(=O)c1ccc2[nH]c(-c3ccc(Oc4ccc(Cl)cc4)cc3)nc2c1 : 1.0
O=C1Nc2ccccc2/C1=C/c1cnc[nH]1 : 0.0
CN(C)CC1CCn2c(c(C3=C(c4c[nH]c5ccccc45)C(=O)NC3=O)c3ccccc32)C1 (stereo not given) : 1.0
COc1cccc(-c2cc(=O)c3ccccc3o2)c1N : 1.0
O=C(O)Cc1ccc(O)c([N+](=O)[O-])c1 : 1.0

Ask: # TODO verify ΔTm < 0.2 °C strictly for this molecule: COc1ccc2c(c[n+](C)c3c4cc5c(cc4ccc23)OCO5)c1OC [CHELERYTHRINE CHLORIDE]
Result: 1.0

Ask: # TODO verify ΔTm < 0.2 °C strictly for this molecule: COc1cc(O)c2c(c1)oc(=O)c1c3cc(O)c(O)cc3oc21
Result: 0.0

Ask: # TODO verify ΔTm < 0.2 °C strictly for this molecule: O=C1C(Cl)=C(N2C(=O)CCC2=O)C(=O)c2ccccc21
Result: 0.0

* * *

Biological target: Inhibitor of nuclear factor kappa-B kinase subunit beta (Homo sapiens, UniProt O14920)
Sequence (O14920 whole entry): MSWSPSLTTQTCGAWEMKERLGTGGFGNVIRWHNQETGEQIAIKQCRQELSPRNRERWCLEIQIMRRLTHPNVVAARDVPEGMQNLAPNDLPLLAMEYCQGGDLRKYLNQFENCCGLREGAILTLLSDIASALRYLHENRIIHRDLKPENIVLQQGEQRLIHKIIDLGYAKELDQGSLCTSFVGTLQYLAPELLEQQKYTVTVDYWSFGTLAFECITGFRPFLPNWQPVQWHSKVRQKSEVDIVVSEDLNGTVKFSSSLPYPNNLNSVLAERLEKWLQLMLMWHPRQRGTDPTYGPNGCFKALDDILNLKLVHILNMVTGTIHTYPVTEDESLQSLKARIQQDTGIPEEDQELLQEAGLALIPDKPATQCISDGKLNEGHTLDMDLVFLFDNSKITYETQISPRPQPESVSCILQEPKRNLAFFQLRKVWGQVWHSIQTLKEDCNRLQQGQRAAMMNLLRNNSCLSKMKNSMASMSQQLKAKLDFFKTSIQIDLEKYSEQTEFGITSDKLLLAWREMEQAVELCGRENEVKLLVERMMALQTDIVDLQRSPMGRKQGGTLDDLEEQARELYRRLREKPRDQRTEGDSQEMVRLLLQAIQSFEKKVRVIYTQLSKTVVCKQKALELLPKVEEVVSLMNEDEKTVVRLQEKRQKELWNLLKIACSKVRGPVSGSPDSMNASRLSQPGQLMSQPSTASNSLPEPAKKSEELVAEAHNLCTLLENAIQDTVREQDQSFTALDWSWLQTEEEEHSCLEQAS
Assay: Inhibition of IKK-beta
endpoint: IC50 (nM)
Give bare numbers, in nM.

Ask: // lookup IC50 for NC(=O)Nc1sc(-c2ccccc2)cc1C(N)=O
Result: 13

* * *

Consider the following ΔTm values measured on Serine/threonine-protein kinase pim-3 (Homo sapiens) (UniProt Q86V86).
Give bare numbers, in °C.

Worked examples, 2 compounds total:
COc1ccc(S(=O)(=O)N(CCO)c2ccccc2CN(C)C/C=C/c2ccc(Cl)cc2)cc1 : 0.5
NS(=O)(=O)c1ccc(Nc2nc(OCC3CCCCC3)c3nc[nH]c3n2)cc1 : 1.3

Answer for every listed entry: what is its ΔTm? The entries follow.
1. O=C1NC(=O)C(c2c[nH]c3ccccc23)=C1c1c[nH]c2ccccc12
2. c1ccc(-c2n[nH]c3c2oc2ccccc23)cc1
3. O=c1cc(N2CCOCC2)oc2c(-c3ccccc3)cccc12
4. O=c1cc(N2CCOCC2)oc2c1ccc1ccccc12
5. O=C(Nc1cccc(Nc2nccc(Nc3cccc(C(F)(F)F)c3)n2)c1)C1CC1 [ANILINOPYRIMIDINE1]
6. COc1cc(/C=C/C(=O)CC(=O)/C=C/c2ccc(O)c(OC)c2)ccc1O [CURCUMIN]
7. CCN1/C(=C/C(C)=O)Sc2ccc(OC)cc21
8. Cc1nc(N)sc1-c1ccnc(Nc2cccc([N+](=O)[O-])c2)n1

Result:
1. 6.3
2. -1.3
3. 2.8
4. 2
5. -0.7
6. 6.9
7. 0.2
8. 1.8
